Below, each entry is listed with its recorded growth inhibition.
experiment: NCI Yeast Anticancer Drug Screen. Data for the bub3 strain (AID 167); settings: S. cerevisiae bub3 mutant strain, at 50.0 µM, hits give high values
This is part of a sample that, as a whole, favours compounds with a hit. Of some 79,000 tested, about 15% had one in any assay.
Write the value in % as a bare number.

CCOC(=O)c1ccc(CSc2ccccc2C(=O)OCC)cc1 | -17.1

// switching to the query compound
For COC(=O)c1ccc(CSc2ccccc2NC(=S)Nc2cccc(SC)c2)o1 , what is its reported growth inhibition? -31.9

###

Let's look at some compounds and their measured growth inhibition.
assay: NCI Yeast Anticancer Drug Screen. Data for the rad50 strain (AID 155);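 further: 0% = growth of vehicle-only cultures of the same strain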; conditions: S. cerevisiae rad50 strain growth inhibition; at 50.0 µM; hits give high values
The panel holds about 79,000 compounds, 15% with a hit somewhere; the sample as a whole holds those more often.
The figure you give is taken to be in %; do not add the unit.

Guide cases for growth inhibition, answers given:
Cc1cc(=O)[nH]cn1 | 0.25
O=C(Nc1ccccc1C(=O)N/N=C/c1cccc(O)c1)c1ccccc1 | 9.5
CCN(CC)CCC1(C(N)=O)Cc2ccccc2N(CC)c2ccccc21 (configuration not stated) | 13.6

Record request: growth inhibition value, item CC(C)OC(=O)CC1CCCCC1 -4

Quick check: growth inhibition of CC(C)N(C(=O)C12C3C4C1(I)C1C2C3(I)C41C(=O)N(C(C)C)C(C)C)C(C)C (configuration not stated) ? -9.55

Please give the measured growth inhibition for this compound: Cc1cccc(O)c1O 25.2

Requested read-out: growth inhibition. Entry: CCSc1ncnc2nc[nH]c12 9

###

assay: NCI Yeast Anticancer Drug Screen. Data for the sgs1 mgt1 strain (AID 161);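 further: 0% = growth of cultures given vehicle only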; conditions: S. cerevisiae sgs1 mgt1 strain, at 50.0 µM, hits give high values
This is part of a sample that, as a whole, favours compounds with a hit. Of some 79,000 tested, about 15% had one in any assay. Where a SMILES comes first, the peptide text is derived from it. The star is where a group is joined. Cbz = O=C(OCc1ccccc1)*; Bn = c1ccc(C*)cc1
Param threshold (-20%) applies to growth inhibition; output condition met when value >= threshold, condition not met when value < threshold.

Here are 4 compounds together with their reported answers.
CC(C)C(NC(=O)C(CSCc1ccccc1)NC(=O)OCc1ccccc1)C(=O)O (stereo unspecified) (Cbz-Cys(Bn)-Val-OH; configuration not given here) | condition met
CC(C)(C)OC(=O)N/N=C(/N)Cc1ccccc1 | condition met
CCCCNC(=O)OCc1cnc(C)n1Cc1ccccc1 | condition met
CCOCCOC(=O)C1CCC(=O)N1CN(C(C)=O)c1cc(OC)ccc1OC (stereo unspecified) | condition not met

Threshold query (growth inhibition >= -20%) on CCN(CC)C(N)=Nc1cc2ccccc2c2ccccc12 condition met

API: above_or_equal(metric=growth inhibition, cutoff=-20%) for item CCOC(=O)COc1ccc(Cl)cc1C condition met

###

test: NCI Yeast Anticancer Drug Screen. Data for the sgs1 mgt1 strain (AID 161);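 further: 0% = growth of cultures given vehicle only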; conditions: S. cerevisiae sgs1 mgt1 strain, at 50.0 µM, hits give high values
The panel holds about 79,000 compounds, 15% with a hit somewhere; the sample as a whole holds those more often.
measurement-type: growth inhibition (%)
Output spec: scalar in %, unitless text.

Illustrative cases are given below, each with its answer.
CC(C)c1cc2c(O)c(c1)Cc1cc(C(C)C)cc(c1O)Cc1cc(C(C)C)cc(c1O)Cc1cc(C(C)C)cc(c1O)Cc1cc(C(C)C)cc(c1O)Cc1cc(C(C)C)cc(c1O)C2 | -14.8
O=C(N=Nc1c(O)[nH]c2ccc(Br)cc12)c1ccco1 | 43.2
CCCCOC(=O)C1C(c2ccc(Cl)cc2)NC(c2ccc(Cl)cc2)C(C(=O)OCCCC)S1(=O)=O (centres undefined) | -14.5
COC(=O)CN(c1c(C)cc(C)c(N)c1C)S(=O)(=O)c1ccccc1 | 4.65
Cn1c(=O)cc(NC2OC(CO)C(O)C(O)C2O)[nH]c1=O (centres undefined) | 24.8

Any idea what its growth inhibition is? The compound is CC1OC(OCC2COC(O)(Oc3c(-c4ccc(O)c(O)c4)oc4cc(O)cc(O)c4c3=O)C(O)C2O)C(O)C(O)C1O (centres undefined) -15.8

Fill blank: measured growth inhibition of the compound O=C1CSc2nc3c(I)cc(I)cc3c(=O)n21 is ____. -0.75

Which growth inhibition value is on record for CC(=O)NC(c1ccc(F)cc1)(c1ccc(F)cc1)C(F)(F)F ? 42.2

growth inhibition for CCOC1(NC(=O)N(C)C)C2CCCC21 (centres undefined) ? -0.1
